# target_system: hGYS1 enzyme (recombinant hGYS1/GN1 protein) (Homo sapiens (Human), UniProt P13807)
# Sequence (P13807 whole entry): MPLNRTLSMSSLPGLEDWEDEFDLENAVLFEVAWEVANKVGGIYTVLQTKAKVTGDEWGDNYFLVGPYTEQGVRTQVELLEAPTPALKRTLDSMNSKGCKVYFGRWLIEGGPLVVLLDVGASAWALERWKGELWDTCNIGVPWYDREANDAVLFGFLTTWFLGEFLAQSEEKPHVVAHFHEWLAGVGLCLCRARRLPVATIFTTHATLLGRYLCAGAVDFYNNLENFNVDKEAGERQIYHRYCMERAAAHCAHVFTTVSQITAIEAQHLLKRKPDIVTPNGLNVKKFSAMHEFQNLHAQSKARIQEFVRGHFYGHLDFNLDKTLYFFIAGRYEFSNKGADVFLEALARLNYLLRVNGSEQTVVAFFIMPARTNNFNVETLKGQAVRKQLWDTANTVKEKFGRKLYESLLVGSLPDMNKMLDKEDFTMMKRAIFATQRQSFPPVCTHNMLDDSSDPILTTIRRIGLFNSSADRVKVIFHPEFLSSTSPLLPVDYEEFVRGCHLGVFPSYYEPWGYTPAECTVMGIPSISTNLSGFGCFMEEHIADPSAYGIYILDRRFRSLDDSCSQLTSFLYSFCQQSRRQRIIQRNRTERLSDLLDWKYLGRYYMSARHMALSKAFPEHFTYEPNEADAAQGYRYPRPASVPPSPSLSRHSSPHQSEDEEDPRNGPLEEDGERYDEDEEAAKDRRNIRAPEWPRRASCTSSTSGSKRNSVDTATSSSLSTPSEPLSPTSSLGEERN
# Sequence (P46976 whole entry partner): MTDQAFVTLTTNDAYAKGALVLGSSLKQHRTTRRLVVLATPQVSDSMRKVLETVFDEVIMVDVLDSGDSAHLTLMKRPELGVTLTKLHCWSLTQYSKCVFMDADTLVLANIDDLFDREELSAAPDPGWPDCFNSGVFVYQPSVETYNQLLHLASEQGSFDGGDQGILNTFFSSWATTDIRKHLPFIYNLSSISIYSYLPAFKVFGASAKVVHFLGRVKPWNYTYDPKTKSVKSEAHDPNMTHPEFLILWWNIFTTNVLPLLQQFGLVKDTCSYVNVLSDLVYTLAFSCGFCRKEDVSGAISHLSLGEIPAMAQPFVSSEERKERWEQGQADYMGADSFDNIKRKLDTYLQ
# procedure_text: GYS1 coupled enzyme assay (PK/LDH)
# experimental_parameters: hGYS1/GN1 50 nM, UDP-Glucose 0.8 mM, G6P 1 mM; geometric mean of at least 2 runs
Measured IC50 of individual entries
property_label: IC50 (nM)

>>> numeric_result("CCn1cccc(CC(=O)N2C[C@H](F)C[C@H]2C(=O)N[C@@H](c2ccccc2)c2ccc(C3CC3)c(F)n2)c1=O [Compound 741]")
16
>>> numeric_result("Cc1cc(CC(=O)N2C[C@H](F)C[C@H]2C(=O)N[C@@H](c2ccccc2)c2ccc(C3CC3)c(F)n2)c[nH]c1=O [Compound 732]")
27
>>> numeric_result("CC(=O)N1[C@@H]2C[C@@H]2C[C@H]1C(=O)N[C@@H](c1ccccc1)c1ccc(C(C)C)cc1 [Compound 200]")
4420
>>> numeric_result("COc1cccc(CC(=O)N2C[C@H](F)C[C@H]2C(=O)N[C@@H](c2ccccc2)c2ccc(C(C)C)cc2)n1 [Compound 81]")
25

###

# target_system: hGYS1 enzyme (recombinant hGYS1/GN1 protein) (Homo sapiens (Human), UniProt P13807)
# procedure_text: GYS1 coupled enzyme assay (PK/LDH)
# experimental_parameters: hGYS1/GN1 50 nM, UDP-Glucose 0.8 mM, G6P 1 mM; geometric mean of at least 2 runs
pIC50: −log10 of the molar value.
property_label: pIC50

>>> numeric_result("CC(C)c1ccc([C@@H](NC(=O)[C@@H]2C[C@@H](F)CN2C(=O)Cc2c[nH]c(=O)cn2)c2ccccc2)nc1F [Compound 802]")
8.05
>>> numeric_result("CCN(CC)c1cnn(CC(=O)N2C[C@H](F)C[C@H]2C(=O)N[C@@H](c2ccccc2)c2ccc(C(C)C)c(F)n2)n1 [Compound 414]")
8.52
>>> numeric_result("CC(C)c1ccc([C@@H](NC(=O)[C@@H]2C[C@@H](F)CN2C(=O)CCc2ccccn2)c2ccccc2)cc1 [Compound 65]")
7.12
>>> numeric_result("O=C(N[C@@H](c1ccccc1)c1ccc(C2CC(F)(F)C2)c(F)n1)[C@@H]1C[C@@H](F)CN1C(=O)Cc1ncc[nH]c1=O [Compound 529]")
7.80
>>> numeric_result("CC(C)c1c(F)cc([C@@H](NC(=O)[C@@H]2C[C@@H](F)CN2S(=O)(=O)Cc2cnn[nH]2)c2ccccc2)cc1F [Compound 659]")
6.48
>>> numeric_result("Cc1cc(C(C)C)ccc1[C@@H](NC(=O)[C@@H]1C[C@@H](F)CN1C(=O)Cc1ncco1)c1ccccc1 [Compound 663]")
5.69
>>> numeric_result("Cc1nnnn1CC(=O)N1C[C@H](F)C[C@H]1C(=O)N[C@@H](c1ccccc1)c1ccc(C(C)C)cc1 [Compound 226]")
7.08

###

# target_system: hGYS1 enzyme (recombinant hGYS1/GN1 protein) (Homo sapiens (Human), UniProt P13807)
# procedure_text: GYS1 coupled enzyme assay (PK/LDH)
# experimental_parameters: hGYS1/GN1 50 nM, UDP-Glucose 0.8 mM, G6P 1 mM; geometric mean of at least 2 runs
Item-by-item account of IC50
property_label: IC50

>>> result("CC(C)c1ccc([C@@H](NC(=O)[C@@H]2C[C@@H](F)CN2C(=O)CNC(=O)N2CC(C(F)(F)F)C2)c2ccccc2)nc1")
"53 nM"
>>> result("CCn1cc(CC(=O)N2C[C@H](F)C[C@H]2C(=O)N[C@@H](c2ccccc2)c2ccc(C(C)C)c(F)n2)cc(C)c1=O")
"5 nM"
>>> result("CC(C)c1ccc([C@@H](NC(=O)[C@@H]2C[C@@H](F)CN2C(=O)Cc2ncco2)c2ccccc2)nc1F")
"15 nM"
>>> result("CC(C)(C)OC(=O)n1c(CC(=O)N2C[C@H](F)C[C@H]2C(=O)N[C@@H](c2ccccc2)c2ccc(C3CC3)c(F)c2)cc2ccccc21")
"26 nM"
>>> result("CC(C)c1ccc([C@@H](NC(=O)[C@@H]2C[C@@H](F)CN2C(=O)Cc2cnn[nH]2)c2ccccc2)nc1F")
"17 nM"
>>> result("CC(C)(C)OC(=O)NCc1nnc(CC(=O)N2C[C@H](F)C[C@H]2C(=O)N[C@@H](c2ccccc2)c2ccc(C3CC3)c(F)c2)o1")
"210 nM"

###

Each item that follows carries a reported IC50.
# target_system: hGYS2 enzyme (recombinant hGYS2/GN1 protein) (Homo sapiens (Human), UniProt P54840)
# Sequence (P54840 whole entry): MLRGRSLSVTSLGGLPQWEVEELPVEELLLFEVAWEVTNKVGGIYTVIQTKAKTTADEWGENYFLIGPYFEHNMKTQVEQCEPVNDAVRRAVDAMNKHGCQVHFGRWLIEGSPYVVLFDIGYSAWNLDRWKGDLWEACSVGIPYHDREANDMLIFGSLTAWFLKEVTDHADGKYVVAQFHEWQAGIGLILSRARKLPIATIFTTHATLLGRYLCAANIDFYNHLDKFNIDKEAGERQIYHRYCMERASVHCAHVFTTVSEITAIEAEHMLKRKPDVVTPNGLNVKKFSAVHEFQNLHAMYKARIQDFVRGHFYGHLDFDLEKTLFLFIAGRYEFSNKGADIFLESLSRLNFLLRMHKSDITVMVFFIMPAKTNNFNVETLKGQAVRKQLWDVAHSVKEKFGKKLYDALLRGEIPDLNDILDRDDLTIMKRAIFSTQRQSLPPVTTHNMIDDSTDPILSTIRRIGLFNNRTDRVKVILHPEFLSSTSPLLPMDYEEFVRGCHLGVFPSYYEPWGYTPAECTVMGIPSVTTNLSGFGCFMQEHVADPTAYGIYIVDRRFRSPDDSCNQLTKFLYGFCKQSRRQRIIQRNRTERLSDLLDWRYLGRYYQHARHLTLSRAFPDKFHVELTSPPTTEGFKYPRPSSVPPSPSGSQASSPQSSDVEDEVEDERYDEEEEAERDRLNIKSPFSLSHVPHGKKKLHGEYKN
# Sequence (P46976 whole entry partner): as the sequence (P46976 whole entry partner) above
# procedure_text: GYS2 coupled enzyme assay (PK/LDH)
# experimental_parameters: geometric mean of at least 2 assay runs on separate days, read-out: Avg_IC50
property_label: IC50

>>> result("CC(C)c1ccc([C@@H](NC(=O)[C@@H]2C[C@@H](F)CN2C(=O)Cn2cnc3ccccc32)c2ccccc2)nc1F")
"> 90.3 µM"
>>> result("CN(C)C(=O)NCC(=O)N1C[C@H](F)C[C@H]1C(=O)N[C@@H](c1ccccc1)c1ccc(C2CC2)c(F)n1")
"> 100 µM"
>>> result("CC[C@@H]1CN(C(C)=O)C[C@@H]1C(=O)N1C[C@H](F)C[C@H]1C(=O)N[C@@H](c1ccccc1)c1ccc(C(C)C)cc1")
"> 100 µM"
>>> result("CC(C)c1ccc([C@@H](NC(=O)[C@@H]2C[C@@H](F)CN2C(=O)Cc2nn[nH]n2)c2ccccc2)cc1 (stereo in doubt)")
"> 100 µM"
>>> result("CC(=O)N[C@@H](CC(N)=O)C(=O)N1C[C@H](F)C[C@H]1C(=O)N[C@@H](c1ccccc1)c1ccc(C(C)C)c(F)c1")
"> 100 µM"
>>> result("CC(C)c1ccc([C@@H](NC(=O)[C@@H]2C[C@@H](F)CN2C(=O)Cc2[nH]nnc2N2CCNCC2)c2ccccc2)cc1F")
"> 100 µM"

###

# target_system: hGYS2 enzyme (recombinant hGYS2/GN1 protein) (Homo sapiens (Human), UniProt P54840)
# procedure_text: GYS2 coupled enzyme assay (PK/LDH)
# experimental_parameters: geometric mean of at least 2 assay runs on separate days, read-out: Avg_IC50
# Excerpt: The GYS2 coupled enzyme assay is a kinetic biochemical assay that indirectly quantifies the rate of glycogen synthesis by coupling the conversion of GYS2 substrate UDP-glucose into UDP with downstream enzymatic reactions. UDP is released from UDP-glucose as glucose monomers are linked into the growing glycogen strand by GYS2. […] Oxidation of NADH to NAD+ can be measured continuously with a plate reader by quantifying the decrease in NADH absorbance at 340 nm over time. […]
pIC50: −log10 of the molar value.
property_label: pIC50

>>> result("CC(C)c1ccc([C@@H](NC(=O)[C@@H]2C[C@@H](F)CN2C(=O)CCCc2cccnc2)c2ccccc2)cc1")
"< 4.00"
>>> result("CC(C)c1ccc([C@@H](NC(=O)[C@@H]2C[C@@H](F)CN2C(=O)Cn2ccnn2)c2ccccc2)cc1 (stereo in doubt)")
"< 4.00"
>>> result("CC(C)c1ccc([C@@H](NC(=O)[C@@H]2C[C@@H](F)CN2C(=O)C(C)n2cnnn2)c2ccccc2)cc1 (stereo partly drawn)")
"< 4.00"

###

# target_system: hGYS1 enzyme (recombinant hGYS1/GN1 protein) (Homo sapiens (Human), UniProt P13807)
# procedure_text: GYS1 coupled enzyme assay (PK/LDH)
# experimental_parameters: hGYS1/GN1 50 nM, UDP-Glucose 0.8 mM, G6P 1 mM; geometric mean of at least 2 runs
Item-by-item account of IC50
property_label: IC50 (µM)

>>> numeric_result("CC(C)c1ccc([C@@H](NC(=O)[C@@H]2C[C@@H](F)CN2C(=O)CNC2(C)COC2)c2ccccc2)cc1")
0.303
>>> numeric_result("CC(=O)N1C[C@@H](O)C[C@H]1C(=O)N[C@@H](c1ccccc1)c1ccc(C(C)C)cc1")
3.53
>>> numeric_result("CC(C)c1ccc([C@@H](NC(=O)[C@@H]2C[C@@H](F)CN2C(=O)[C@H](C)NC(=O)N(C)C)c2ccccc2)nc1F")
0.02
>>> numeric_result("O=C(N[C@@H](c1ccccc1)c1ccc(C2CC2)c(F)c1)[C@@H]1C[C@@H](F)CN1C(=O)Cc1n[nH]c2ccccc12")
0.071
>>> numeric_result("O=C(N[C@@H](c1ccccc1)c1ccc(C2CC(F)(F)C2)c(F)n1)[C@@H]1C[C@@H](F)CN1C(=O)Cc1cnn[nH]1")
0.021
>>> numeric_result("Cc1ccc2c(CC(=O)N3C[C@H](F)C[C@H]3C(=O)N[C@@H](c3ccccc3)c3ccc(C(C)C)c(F)n3)cccc2n1")
0.005
>>> numeric_result("O=C(N[C@@H](c1ccccc1)c1ccc(C2CC2)c(F)n1)[C@@H]1C[C@@H](F)CN1C(=O)Cn1cc(N2CCC2)nn1")
0.03
>>> numeric_result("O=C(N[C@@H](c1ccccc1)c1ccc(C2CC2)c(F)c1)[C@@H]1C[C@@H](F)CN1C(=O)Cn1cnnc1")
0.247
>>> numeric_result("CC(C)c1ccc([C@@H](NC(=O)[C@@H]2C[C@@H](F)CN2C(=O)Cn2ccnc2)c2ccccc2)cc1")
0.07
>>> numeric_result("Cn1c(CC(=O)N2C[C@H](F)C[C@H]2C(=O)N[C@@H](c2ccccc2)c2ccc(C3CC3)c(F)c2)cc2ccccc21")
0.024
>>> numeric_result("CC1(c2ccc([C@@H](NC(=O)[C@@H]3C[C@@H](F)CN3C(=O)CNC(=O)N3CCOCC3)c3ccccc3)nc2F)CC1")
0.101
>>> numeric_result("CC(C)c1ccc([C@@H](NC(=O)[C@@H]2C[C@@H](F)CN2C(=O)Cn2cccn2)c2ccccc2)nc1")
0.111
>>> numeric_result("CCN(CC)c1cnn(CC(=O)N2C[C@H](F)C[C@H]2C(=O)N[C@@H](c2ccccc2)c2ccc(C3CC3)c(F)n2)n1")
0.007
